test system: Rat Hepatocytes; test: Inhibition of Gluconeogenesis in Rat Hepatocytes (Example C); assay type: cell-based; settings: glucose production from 10 mM lactate, 1 mM pyruvate; 1 hour; hepatocytes from fed Sprague-Dawley rats
PARAMETER: pIC50
Please note pIC50 is a logarithmic value: minus log10 of concentration in mol/L. Answer with that number alone.

**Query** Give the measured pIC50 for `CC(C)Cc1sc(N)nc1-c1ccc(P(=O)(N[C@@H](C)C(=O)OCc2ccccc2)N[C@@H](C)C(=O)OCc2ccccc2)o1`
**Result** 5.68

* * *

Kindly state IC50 for each of the entries shown.
biological target: rat liver FBPase; experiment: Inhibition of rat liver FBPase (Example B); settings: assayed as for human liver FBPase
Kindly answer with a numeric value in µM, unit omitted.

**Query** Give the measured IC50 for `Nc1ncnc2c1ncn2[C@@H]1O[C@H](COP(=O)(O)O)[C@@H](O)[C@H]1O`
**Result** 25

**Query** Give the measured IC50 for `CSc1nc(-c2ccc(P(=O)(O)O)o2)c(CC(C)C)s1`
**Result** 0.175
